Experiment: T. gondii growth inhibition with IFN-gamma, primary screen, cell-based (AID 1259416);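 note: host cells are HeLa cells infected with Toxoplasma gondii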
Conditions: Toxoplasma gondii growth in IFN-gamma-treated host cells; stronger effect = lower value; concentration not given here
The whole screen tested about 69,000 compounds, of which about 2,600 (3.8%) were called active. Only a selection was taken, and actives are over-represented in it overall.
Recorded measurements of activity change, negative = inhibition, one per entry
Please state the figure in %; there is no need to write the unit.

Cc1ccc(C(=O)N2CC[C@H]3[C@@H]2CCN3c2nncs2)o1
17.4

Q: activity change, negative = inhibition lookup needed for COc1ccc2c3c(n(C)c2c1)[C@H](CO)N(C(=O)Nc1cccc(F)c1)CC31CN(Cc2nccs2)C1 , thanks.
Ans: -24.3

Q: activity change, negative = inhibition lookup needed for c1cncc(-c2nc3c(c(NCCC4CCOC4)n2)CCNC3)c1 (stereo not given) , thanks.
Ans: -9.13

Q: activity change, negative = inhibition lookup needed for CCCn1cc(C(=O)N(Cc2ccccn2)CC2CCCO2)c(C)n1 (stereo not given) , thanks.
Ans: -1.25

Q: activity change, negative = inhibition lookup needed for CO[C@@H]1CN(C)C(=O)c2cc(NC(=O)NC3CCCCC3)ccc2OC[C@H](C)N(CC2CCOCC2)C[C@H]1C , thanks.
Ans: -30.9

* * *

Assay: T. gondii growth inhibition with IFN-gamma, primary screen, cell-based (AID 1259416);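 note: host cells are HeLa cells infected with Toxoplasma gondii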
Conditions: Toxoplasma gondii growth in IFN-gamma-treated host cells; concentration not given here
Among all 69,000 compounds or so, about 2,600 (3.8%) were called active. Rule as the data show it: active = activity change below about -70% (passing the limit was not always enough); inconclusive = no clear call, values can overlap the other calls. This excerpt belongs to a sample that is enriched for actives.
Hi there, use one of these labels in your reply, thanks! active, inactive

Solved entries:
O=C(c1ccoc1)N1CCCn2c(nc(CN3CCCC3)cc2=O)C1
inactive
O=C(O)C1CSC(C2CC=CCC2)N1 (centres undefined)
inactive
Fc1ccc2c(c1)C(c1cccnc1)=NNC(c1cccs1)=N2
inactive

Q: Would you mind telling me which call this test gave CN1C(=O)c2cc(NS(=O)(=O)c3ccccc3F)ccc2OC[C@@H]2O[C@@H](CC(=O)NC3Cc4ccccc4C3)CC[C@@H]21 ?
Ans: inactive

* * *

Test: T. gondii growth inhibition with IFN-gamma, primary screen, cell-based (AID 1259416);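 note: host cells are HeLa cells infected with Toxoplasma gondii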
Conditions: Toxoplasma gondii growth in IFN-gamma-treated host cells; stronger effect = lower value; concentration not given here
Among all 69,000 compounds or so, about 2,600 (3.8%) were called active. Shown is part of a subset that was picked to be rich in actives.
Recorded measurements of activity change, negative = inhibition, one per entry
Please state the figure in %; there is no need to write the unit.

COc1ccc(NC(=O)c2cc3c(s2)CCN3C(=O)C2CC2)cc1
23.2
COC1C2CCC1N(C(=O)COc1ccccc1C)CCO2 (stereo unspecified)
-5.26
CC(=O)Nc1ccc(-c2cn3nc(C)c(C)nc3n2)cc1
-0.582

Q: activity change, negative = inhibition lookup needed for O=C(NCCc1nnc2n1CCNCC2)C1(c2ccccc2)CC12CCCC2 (stereo unspecified) , thanks.
Ans: -3.83

Q: activity change, negative = inhibition lookup needed for O=C(Cn1ncc2c(N3CCN(c4ccccc4)CC3)ncnc21)Nc1ccc(Cl)cc1 , thanks.
Ans: -12.8

Q: activity change, negative = inhibition lookup needed for CN(CCCC1CCCO1)Cc1ncc[nH]1 (stereo unspecified) , thanks.
Ans: -1.64

Q: activity change, negative = inhibition lookup needed for O=C1CCCCC(=O)c2ccccc2N1 , thanks.
Ans: -17.8

Q: activity change, negative = inhibition lookup needed for Cc1cc(N2CCC(C(=O)Nc3nnc(-c4cccnc4)s3)CC2)n2ncnc2n1 , thanks.
Ans: -5.63

Q: activity change, negative = inhibition lookup needed for COc1ccc(S(=O)(=O)CCNS(=O)(=O)N2CCCC(C)C2)cc1 (stereo unspecified) , thanks.
Ans: 2.67

Q: activity change, negative = inhibition lookup needed for O=C(Cn1ncc2ccccc2c1=O)NCc1cc(Cl)c2c(c1)OCCCO2 , thanks.
Ans: 23

Q: activity change, negative = inhibition lookup needed for CC(=O)N1CCCCN2[C@H](CO)[C@H](c3ccc(-c4ccccc4)cc3)[C@@H]2C1 , thanks.
Ans: 12.2
